# Tested on: Primary T cells
# experimental_protocol: Cytotoxicity, viability by flow cytometry
# Format: cell-based
metric: TD50

Recorded TD50, per entry:
[
  {
    "molecule": "COc1ccccc1-c1cc(Nc2ccc(N3CCN(C)CC3)c(S(N)(=O)=O)c2)ncn1",
    "experimental_value": "<1.5 µM"
  },
  {
    "molecule": "COc1ccc(Nc2cc(-c3ccccc3OC)ncn2)cc1C(=O)NCc1ccccc1",
    "experimental_value": ">0.5 µM"
  },
  {
    "molecule": "CCOC(=O)c1cc(Nc2cc(-c3ccccc3OC)ncn2)ccc1N1CCOCC1",
    "experimental_value": ">0.5 µM"
  },
  {
    "molecule": "COc1ccccc1-c1cc(Nc2ccc(Cl)c(C(N)=O)c2)ncn1",
    "experimental_value": ">5 µM"
  },
  {
    "molecule": "COc1ccccc1-c1cc(Nc2ccc(Cl)c(C(=O)NN)c2)ncn1",
    "experimental_value": ">5 µM"
  }
]

Exercise: Report TD50, nothing else, for this molecule: `COc1ccccc1-c1cc(Nc2ccc(Cl)c(C(=O)N3CCCC3)c2)ncn1`
Solution: >0.5 µM

Exercise: Report TD50, nothing else, for this molecule: `COc1ccc(Nc2cc(-c3ccccc3OC)ncn2)cc1C(=O)O`
Solution: >10 µM

Exercise: Report TD50, nothing else, for this molecule: `COc1cc(F)c(Nc2cc(-c3ccccc3OC)ncn2)cc1N`
Solution: >20 µM

* * *

# Tested on: Primary T cells
# experimental_protocol: Cytotoxicity, viability by flow cytometry
# Type: cell-based
metric: TD50

[
  {
    "molecule": "COC(=O)c1cc(Nc2cc(-c3ccccc3OC)ncn2)ccc1O",
    "TD50": ">0.5 µM"
  },
  {
    "molecule": "COc1ccc(Nc2cc(-c3ccccc3OC)ncn2)cc1F",
    "TD50": ">0.5 µM"
  },
  {
    "molecule": "COc1cc(Nc2cc(-c3ccccc3OC)ncn2)ccc1C(N)=O",
    "TD50": ">2 µM"
  },
  {
    "molecule": "COc1ccc(Nc2cc(-c3cc(F)ccc3OC)ncn2)cc1O",
    "TD50": ">2 µM"
  },
  {
    "molecule": "COc1ccc(Nc2cc(-c3ccccc3OC)ncn2)cc1Cn1cnc2ccccc21",
    "TD50": "1.8 µM"
  }
]

Exercise: Report TD50, nothing else, for this molecule: `COc1ccc(Nc2cc(-c3ccc(F)cc3OC)ncn2)cc1C(N)=O`
Solution: 5 µM

Exercise: Report TD50, nothing else, for this molecule: `CCOc1ccccc1-c1cc(Nc2cc(F)c(OC)c(C(N)=O)c2)ncn1`
Solution: >20 µM

* * *

# System: Primary T cells
# experimental_protocol: Cytotoxicity, viability by flow cytometry
# Format: cell-based
Measured TD50, listed per entry.

Recorded TD50, per entry:
[
  {
    "compound": "COc1cccc(-c2cc(Nc3ccc(OC)c(N)c3)ncn2)c1 [Example 68]",
    "system_under_test": "Primary T cells",
    "TD50": ">10 µM"
  },
  {
    "compound": "COc1cc(F)c(Nc2cc(-c3cc(F)ccc3OC)ncn2)cc1C(N)=O [Example 144]",
    "system_under_test": "Primary T cells",
    "TD50": "12 µM"
  },
  {
    "compound": "COC(=O)c1cc(Nc2cc(-c3ccccc3OC)ncn2)ccc1OC [Example 30]",
    "system_under_test": "Primary T cells",
    "TD50": ">0.5 µM"
  },
  {
    "compound": "COc1ccccc1-c1cc(Nc2ccc(Cl)c(Cn3cnc4ccccc43)c2)ncn1 [Example 16]",
    "system_under_test": "Primary T cells",
    "TD50": "1.5 µM"
  },
  {
    "compound": "CNC(=O)c1ccc(Nc2cc(-c3ccccc3OC)ncn2)cc1OC [Example 134]",
    "system_under_test": "Primary T cells",
    "TD50": ">10 µM"
  },
  {
    "compound": "CCOc1ccccc1-c1cc(Nc2cc(C(N)=O)c(OC)cc2F)ncn1 [Example 145]",
    "system_under_test": "Primary T cells",
    "TD50": "15 µM"
  },
  {
    "compound": "CCOc1cc(F)ccc1-c1cc(Nc2cc(N)c(OC)c(F)c2)ncn1 [Example 89]",
    "system_under_test": "Primary T cells",
    "TD50": ">20 µM"
  },
  {
    "compound": "COc1ccc(Nc2cc(-c3ccccc3OC)ncn2)cc1CO [Example 24]",
    "system_under_test": "Primary T cells",
    "TD50": ">0.5 µM"
  }
]

Exercise: Report TD50, nothing else, for this compound: COc1ccccc1-c1cc(Nc2ccc(O)c([N+](=O)[O-])c2)ncn1 [Example 12]
Solution: >1.5 µM

Exercise: Report TD50, nothing else, for this compound: CN1CC[C@H](c2c(O)cc(O)c3c(=O)cc(-c4ccccc4Cl)oc23)[C@H](O)C1 [Flavopiridol, reference compound]
Solution: 0.1 µM

Exercise: Report TD50, nothing else, for this compound: COc1ccc(Nc2cc(-c3ccccc3OC)ncn2)cc1NS(C)(=O)=O [Example 9]
Solution: >1.5 µM
